Listed substances paired with reported MIC
system: methicillin-resistant Staphylococcus aureus (MRSA) ATCC 33591; type: cell-based; conditions: MHB, 5 × 10^5 CFU/mL, 37°C, 18 h, triplicate
Where no end group is shown, it is not given here.
Express the result in µM but write the number alone.

| substance | readout | units | testValue |
| --- | --- | --- | --- |
| RPRRRATTRRRITTGTRRRR-NH2 [vCPP 0667] | MIC | µM | 100 |
| KKRYKKKYKAYKPYKKKKKF-NH2 [vCPP 0275] | MIC | µM | 50 |
| RRLTLRQLLGLGSRRRRRSR-NH2 [vCPP 0769] | MIC | µM | 3.13 |

**Q:** Check the records and state MIC for WRRRYRRWRRRRRWRRRPRR-NH2 [vCPP 2319]
**A:** 1.56
